- target: UniProt P48730
- Sequence (P48730 whole entry, looked up): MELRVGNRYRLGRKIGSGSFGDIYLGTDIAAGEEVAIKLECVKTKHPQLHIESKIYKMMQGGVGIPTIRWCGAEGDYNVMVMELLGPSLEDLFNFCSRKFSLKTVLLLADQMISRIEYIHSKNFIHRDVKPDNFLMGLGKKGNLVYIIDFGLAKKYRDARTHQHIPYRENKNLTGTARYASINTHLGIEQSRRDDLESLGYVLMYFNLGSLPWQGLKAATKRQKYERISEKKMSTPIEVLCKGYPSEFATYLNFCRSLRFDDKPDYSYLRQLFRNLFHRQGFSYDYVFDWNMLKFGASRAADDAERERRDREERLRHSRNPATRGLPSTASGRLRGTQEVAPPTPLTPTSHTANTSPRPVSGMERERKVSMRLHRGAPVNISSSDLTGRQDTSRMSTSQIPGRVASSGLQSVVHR
- assayOverview: radiometric filter-binding kinase assay, Kinase HotSpot
- reportedConditions: compound 0.5 µM; ATP 10 µM
measuredEndpoint: residual activity (%)
Just the number in %, nothing appended.

N#C/C(=C(/N)Sc1ccc(N)cc1)c1ccccc1C(F)(F)F : 106
CCCC(=O)Oc1ccc2[nH]c(C(=O)c3cc4ccccc4[nH]3)cc2c1 : 96.4
c1ccc(-c2n[nH]cc2-c2ccnc3ccccc23)nc1 : 44.2

Q: Item under review: `COc1ccc(COc2ccc(Cc3cnc(N)nc3N)cc2OC)cc1` . Reported residual activity?
Ans: 98.5

Q: Next entry: `O=C1NC(=O)C(c2cn(CCCn3ccnc3)c3ccccc23)=C1Nc1ccccc1`
Ans: 102

Q: Next entry: `O=S(=O)(c1cccc2cnccc12)N1CCCNCC1`
Ans: 99.7

Q: Next entry: `CC#CC(=O)Nc1cc2c(Nc3ccc(F)c(Cl)c3)ncnc2cn1`
Ans: 99.3

Q: Next entry: `Nc1ncnc2[nH]nc(Nc3ccc(F)cc3)c12`
Ans: 67.7

Q: Next entry: CO[C@H]1CC2CC[C@@H](C)[C@@](O)(O2)C(=O)C(=O)N2CCCC[C@H]2C(=O)OC([C@H](C)C[C@@H]2CC[C@@H](O)[C@H](OC)C2)CC(=O)[C@H](C)/C=C(\C)[C@@H](O)[C@@H](OC)C(=O)[C@H](C)C[C@H](C)/C=C/C=C/C=C/1C (some centres undefined)
Ans: 110

----------
- target: MAP3K7 TAB1 (human) (UniProt O43318+Q15750)
- Sequence (O43318 whole entry, looked up): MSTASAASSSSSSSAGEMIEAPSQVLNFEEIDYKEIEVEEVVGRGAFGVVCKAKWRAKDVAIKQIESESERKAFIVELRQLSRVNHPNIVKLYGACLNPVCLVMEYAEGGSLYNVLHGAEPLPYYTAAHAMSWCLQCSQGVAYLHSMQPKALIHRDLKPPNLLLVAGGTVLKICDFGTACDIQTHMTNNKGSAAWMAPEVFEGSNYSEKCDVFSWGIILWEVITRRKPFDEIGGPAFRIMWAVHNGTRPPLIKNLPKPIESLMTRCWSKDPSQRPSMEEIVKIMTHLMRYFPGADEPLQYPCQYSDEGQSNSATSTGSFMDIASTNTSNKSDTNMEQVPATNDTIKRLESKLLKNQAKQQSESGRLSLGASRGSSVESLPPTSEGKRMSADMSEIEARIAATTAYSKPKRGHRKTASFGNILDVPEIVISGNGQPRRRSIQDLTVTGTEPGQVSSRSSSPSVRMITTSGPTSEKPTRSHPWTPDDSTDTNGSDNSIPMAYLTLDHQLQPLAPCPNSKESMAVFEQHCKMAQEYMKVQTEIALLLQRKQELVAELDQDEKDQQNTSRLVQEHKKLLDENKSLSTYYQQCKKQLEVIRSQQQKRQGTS
- Sequence (Q15750 whole entry, looked up): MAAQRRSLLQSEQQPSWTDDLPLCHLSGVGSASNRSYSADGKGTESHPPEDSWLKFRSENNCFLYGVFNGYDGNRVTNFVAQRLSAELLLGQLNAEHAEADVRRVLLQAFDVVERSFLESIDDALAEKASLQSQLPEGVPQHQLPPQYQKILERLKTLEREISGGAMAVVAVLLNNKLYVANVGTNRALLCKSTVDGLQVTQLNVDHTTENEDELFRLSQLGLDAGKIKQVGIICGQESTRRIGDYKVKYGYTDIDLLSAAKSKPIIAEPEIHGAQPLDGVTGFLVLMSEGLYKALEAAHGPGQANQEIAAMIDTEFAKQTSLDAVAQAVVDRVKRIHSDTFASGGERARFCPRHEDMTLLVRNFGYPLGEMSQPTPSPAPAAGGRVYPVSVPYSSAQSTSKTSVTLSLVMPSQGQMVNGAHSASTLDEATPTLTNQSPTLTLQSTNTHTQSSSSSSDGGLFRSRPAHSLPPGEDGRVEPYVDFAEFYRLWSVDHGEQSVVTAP
- assayOverview: radiometric filter-binding kinase assay, Kinase HotSpot
- reportedConditions: compound 0.5 µM; ATP 10 µM
In this section, each of the molecules is paired with its reported residual activity.
Just the number in %, nothing appended.

The cases that follow already have their residual activity on record.
CNc1cc2c(Nc3cccc(Br)c3)ncnc2cn1 : 94.9
CO[C@H]1CC2CC[C@@H](C)[C@@](O)(O2)C(=O)C(=O)N2CCCC[C@H]2C(=O)OC([C@H](C)C[C@@H]2CC[C@@H](O)[C@H](OC)C2)CC(=O)[C@H](C)/C=C(\C)[C@@H](O)[C@@H](OC)C(=O)[C@H](C)C[C@H](C)/C=C/C=C/C=C/1C (some centres undefined) : 95.2
CCN(CC)CCNC(=O)c1c(C)[nH]c(/C=C2\C(=O)Nc3ccc(F)cc32)c1C : 18.6
COC[C@H]1OC(=O)c2coc3c2[C@@]1(C)C1=C(C3=O)[C@@H]2CCC(=O)[C@@]2(C)C[C@H]1OC(C)=O : 97.2

Q: Item under review: `c1ccc(-c2n[nH]cc2-c2ccnc3ccccc23)nc1` . Reported residual activity?
Ans: 98.4

Q: Next entry: `N#CC(C#N)=C(N)/C(C#N)=C/c1ccc(O)cc1`
Ans: 94.8

Q: Next entry: `Nc1ncnc2[nH]nc(Nc3ccc(F)cc3)c12`
Ans: 100

Q: Next entry: `CC#CC(=O)Nc1cc2c(Nc3ccc(F)c(Cl)c3)ncnc2cn1`
Ans: 100

Q: Next entry: `Cc1ccc(NC2=CC(=O)c3sc(C)nc3C2=O)cc1`
Ans: 99.1

----------
- target: EPHB4 (human) (UniProt P54760)
- Sequence (P54760 whole entry, looked up): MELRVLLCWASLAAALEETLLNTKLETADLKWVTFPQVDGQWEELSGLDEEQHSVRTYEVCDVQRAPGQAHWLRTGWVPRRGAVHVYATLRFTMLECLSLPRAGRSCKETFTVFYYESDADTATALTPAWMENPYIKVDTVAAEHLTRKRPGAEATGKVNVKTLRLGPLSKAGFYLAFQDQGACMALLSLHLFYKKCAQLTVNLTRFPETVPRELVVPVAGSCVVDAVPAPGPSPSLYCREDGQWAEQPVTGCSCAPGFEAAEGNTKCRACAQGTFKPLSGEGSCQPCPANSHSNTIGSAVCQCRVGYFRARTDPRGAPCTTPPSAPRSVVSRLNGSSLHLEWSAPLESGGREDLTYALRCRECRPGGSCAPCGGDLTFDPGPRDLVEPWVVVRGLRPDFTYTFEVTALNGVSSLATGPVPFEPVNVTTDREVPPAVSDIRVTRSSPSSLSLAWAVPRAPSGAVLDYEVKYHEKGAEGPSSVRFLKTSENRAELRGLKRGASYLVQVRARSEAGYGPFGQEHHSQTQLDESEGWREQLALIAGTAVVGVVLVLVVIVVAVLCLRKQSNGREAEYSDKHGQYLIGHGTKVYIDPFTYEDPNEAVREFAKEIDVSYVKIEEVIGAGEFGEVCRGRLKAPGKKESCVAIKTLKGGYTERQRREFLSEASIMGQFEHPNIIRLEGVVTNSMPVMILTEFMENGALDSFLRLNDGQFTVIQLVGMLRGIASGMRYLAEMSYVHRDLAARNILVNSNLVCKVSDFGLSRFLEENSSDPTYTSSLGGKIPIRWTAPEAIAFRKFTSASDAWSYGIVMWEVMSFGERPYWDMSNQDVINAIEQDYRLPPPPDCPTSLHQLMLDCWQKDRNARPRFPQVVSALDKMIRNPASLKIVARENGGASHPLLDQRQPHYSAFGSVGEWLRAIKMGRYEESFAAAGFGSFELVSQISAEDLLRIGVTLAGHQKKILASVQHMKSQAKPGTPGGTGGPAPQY
- assayOverview: radiometric filter-binding kinase assay, Kinase HotSpot
- reportedConditions: compound 0.5 µM; ATP 10 µM
In this section, each of the molecules is paired with its reported residual activity.
Just the number in %, nothing appended.

The cases that follow already have their residual activity on record.
Cc1ccc(NC2=CC(=O)c3sc(C)nc3C2=O)cc1 : 89.7
O=C1NC(=O)/C(=C/c2ccc3c(c2)OC(F)(F)O3)S1 : 100
CCN(CC)C(=O)c1ccc(Nc2nc(OCC3CCCCC3)c3nc[nH]c3n2)cc1 : 85
Nc1ncnc2[nH]nc(Nc3ccc(F)cc3)c12 : 87.8
CCN(CC)CCNC(=O)c1c(C)[nH]c(/C=C2\C(=O)Nc3ccc(Cl)cc32)c1C : 76.9

Q: Item under review: `CNc1cc2c(Nc3cccc(Br)c3)ncnc2cn1` . Reported residual activity?
Ans: 99.6

Q: Next entry: `O=c1cc(N2CCOCC2)oc2c1ccc1ccccc12`
Ans: 96.3

Q: Next entry: `Cc1ccc(S(=O)(=O)/C=C/C#N)cc1`
Ans: 102

Q: Next entry: `N#CC(C#N)=C(N)/C(C#N)=C/c1ccc(O)cc1`
Ans: 88.1
